Measured GI50, listed per entry.
System: A498 renal
protocolText: NCI tumour cell line growth inhibition, 48 h

Use these answered entries as a reference point.
COc1cccc(C2=C(c3cn(C)c4ccccc34)C(=O)NC2=O)c1	3.09 µM
CC12CCC=CC1CCC1C2CCC2(C)C(c3ccc(=O)oc3)CCC12O (configuration not stated)	0.0496 µM
COc1ccccc1[N-]C(C1=C([O-])c2ccccc2C1=O)c1ccccc1.COc1ccccc1[N-]C(C1=C([O-])c2ccccc2C1=O)c1ccccc1.[Cu+2] (configuration not stated)	14.7 µM
C=C1C(=O)O[C@@H]2C1CC(=O)C(C)CC/C=C(\C)CCC[C@H](C)[C@H]2OC(C)=O (some centres not stated)	20.7 µM

Prompt: Give the measured GI50 of c1ccc2[nH]c(-c3ccc(N4CCN(c5ccc(-c6nc7ccccc7[nH]6)cc5)CC4)cc3)nc2c1 .
Completion: 54.8 µM

Prompt: Give the measured GI50 of CN(C)c1ccc2nc3ccc(=[N+](C)C)cc-3oc2c1 .
Completion: 13.7 µM

###

System: A498 renal
protocolText: NCI tumour cell line growth inhibition, 48 h
Measured TGI, listed per entry.

Use these answered entries as a reference point.
Oc1ccccc1/C=N/Nc1nnc2c3ccccc3c3ccccc3c2n1	> 100 µM
COc1cc(/C=C\c2ccccn2)cc(OC)c1OC	> 100 µM
O=C(CCN1CCCC1)Nc1ccc2c(NCc3ccc(F)cc3)c3ccccc3nc2c1	2.26 µM
Cn1nc(Cc2ccc(Cl)cc2)n(N)c1=O	> 100 µM

Prompt: Give the measured TGI of N#CSc1ncnc2nc[nH]c12 .
Completion: > 100 µM

Prompt: Give the measured TGI of COc1ccc(/C=C(\Cl)c2ccc(OC)c(OC)c2)cc1OC .
Completion: > 100 µM

###

Tested on: 786-0 renal
protocolText: NCI tumour cell line growth inhibition, 48 h
Measured TGI, listed per entry.
Lab book: enter the figure in µM, no units written.

Prompt: Give the measured TGI of CCC[CH2][Sn]([CH2]CCC)([O]C(C)=O)[O]C(C)=O .
Completion: 2.83

Prompt: Give the measured TGI of Fc1ccc2[nH]cc(Cc3c[nH]c4ccc(F)cc34)c2c1 .
Completion: 35.6

###

Test system: KM12 colon
protocolText: NCI tumour cell line growth inhibition, 48 h
Measured GI50, listed per entry.

N#Cc1ncc(/N=C/c2ccc(N(CCCl)CCCl)cc2)s1	76.5 µM
CCn1c(-c2nonc2N)nc2cncc(C(=O)N3CCNCC3)c21	> 25 µM
Cc1cc(N2CCCCC2)nc(N(CCNc2ccnc3cc(Cl)ccc23)Cc2ccco2)n1	2.07 µM

Prompt: Find GI50 (KM12 colon) for the entry CCN(CC)CCOc1ccc(C(=C(C)c2ccc(Cl)cc2)c2ccc(OCCN(CC)CC)cc2)cc1
Completion: 0.666 µM

Prompt: Find GI50 (KM12 colon) for the entry COc1cccc(C2=C(c3cn(C)c4ccccc34)C(=O)NC2=O)c1
Completion: 8.45 µM

Prompt: Find GI50 (KM12 colon) for the entry Nc1nc(/C=C\c2ccc([N+](=O)[O-])o2)nc(N2CCN(c3ccccc3)CC2)n1
Completion: 11.5 µM

Prompt: Find GI50 (KM12 colon) for the entry COc1cc2cc(Oc3ccc(NC(=O)Nc4ccc(Cl)c(C(F)(F)F)c4)cc3)c(C)nc2cc1OCCN1CCCCC1
Completion: 1.64 µM

Prompt: Find GI50 (KM12 colon) for the entry COc1cc2cc(C(=O)N3CC(CCl)c4c3cc(NC(=O)C(C)(C)c3ccccc3[N+](=O)[O-])c3ccccc43)[nH]c2c(OC)c1OC (stereo not given)
Completion: 48.2 µM

Prompt: Find GI50 (KM12 colon) for the entry Cc1ccc2[nH]c(C(=O)NN3C(=O)CSC34CCCCC4C)c(-c3ccccc3)c2c1 (stereo not given)
Completion: 14.9 µM

Prompt: Find GI50 (KM12 colon) for the entry CCN(CC)c1ccc(/C=C/c2cc(C)c3ccccc3n2)cc1
Completion: 2.31 µM
